These entries and their values trace back to the supplement of paper PMC8253809.

Tested on: DIPGX37 (H3.3 K27M diffuse intrinsic pontine glioma line)
TEST PROTOCOL: growth inhibition (% activity, log2 RLU normalised to DMSO / staurosporine); higher = more growth inhibition
SETTINGS: 33 µM
Listed here are compounds together with their documented growth inhibition.
Please answer using a numeric value trailed by its unit.

COc1ccc2cc([C@H](C)C(=O)O)ccc2c1; -1.1%
CC(=O)O[C@H]1C(=O)[C@@]2(C)[C@H]([C@H](OC(=O)c3ccccc3)[C@]3(O)C[C@H](OC(=O)[C@H](O)[C@@H](NC(=O)c4ccccc4)c4ccccc4)C(C)=C1C3(C)C)[C@]1(OC(C)=O)CO[C@@H]1C[C@@H]2O; 8.37%
C=C[C@]1(C)C[C@@H](OC(=O)CS[C@@H]2C[C@H]3CC[C@@H](C2)N3C)[C@]2(C)[C@H](C)CC[C@]3(CCC(=O)[C@H]32)[C@@H](C)[C@@H]1O; 2.94%
CNCCC(Oc1ccc(C(F)(F)F)cc1)c1ccccc1 (centres undefined); 2.62%
O=C(O)CSCC(=O)NC1CCSC1=O (centres undefined); -0.388%

Input line: Please report growth inhibition for the following compound: CCCC(=O)OCOC(=O)C1=C(C)NC(C)=C(C(=O)OC)C1c1cccc(Cl)c1Cl (centres undefined)
Output line: 4.21%

Input line: Please report growth inhibition for the following compound: `Cc1ccc2c(Cl)cc(Cl)c(O)c2n1`
Output line: 2.78%

Input line: Please report growth inhibition for the following compound: CC(C(=O)O)c1ccc(-c2ccccc2)c(F)c1 (centres undefined)
Output line: 3.25%

Input line: Please report growth inhibition for the following compound: `C[C@H](N)[C@H](O)c1cccc(O)c1`
Output line: 0.0235%

====

System: SUDIPGXIII (diffuse intrinsic pontine glioma line)
TEST PROTOCOL: growth inhibition (% activity, log2 RLU normalised to DMSO / staurosporine); higher = more growth inhibition
SETTINGS: 33 µM
Listed here are molecules together with their documented growth inhibition.
Write the number in % without appending the unit.

C#C[C@]1(OC(C)=O)CC[C@H]2[C@@H]3CCC4=C[C@@H](OC(C)=O)CC[C@@H]4[C@H]3CC[C@@]21C; 1.62

Input line: Please report growth inhibition for the following molecule: NCC1OC(OC2C(N)CC(N)C(OC3OC(CO)C(O)C(N)C3O)C2O)C(N)C(O)C1O (configuration not stated)
Output line: -1.57

Input line: Please report growth inhibition for the following molecule: `COc1cc(/C=C/C(=O)CC(=O)/C=C/c2ccc(O)c(OC)c2)ccc1O`
Output line: -11.1

Input line: Please report growth inhibition for the following molecule: `O=C(O)c1ccc(-n2nc(-c3ccccc3O)nc2-c2ccccc2O)cc1`
Output line: 0.207

Input line: Please report growth inhibition for the following molecule: CCCC(=O)Nc1ccc(OCC(O)CNC(C)C)c(C(C)=O)c1 (configuration not stated)
Output line: -1.79

====

Tested on: DIPGX37
TEST PROTOCOL: growth inhibition (% activity, log2 RLU normalised to DMSO / staurosporine); higher = more growth inhibition
SETTINGS: 33 µM
METRIC NAME: growth inhibition (%)
Write the number in % without appending the unit.

These recorded examples may help you get a feel for the data.
C[N+](C)(C)CCCCCC[N+](C)(C)C; -1.26
COC(=O)[C@H](c1ccccc1Cl)N1CCc2sccc2C1; -0.314
COc1cc(Cc2cnc(N)nc2N)cc(OC)c1OC; 3.36
CC(=O)S[C@@H]1CC2=CC(=O)CC[C@]2(C)[C@H]2CC[C@@]3(C)[C@@H](CC[C@@]34CCC(=O)O4)[C@H]12; 4.15
CCCCCOC(=O)Nc1nc(=O)n([C@@H]2O[C@H](C)[C@@H](O)[C@H]2O)cc1F; 1.13

Input line: Please report growth inhibition for the following molecule: `N#Cc1ccc(C(c2ccc(C#N)cc2)n2cncn2)cc1`
Output line: 0.114

Input line: Please report growth inhibition for the following molecule: `CC[C@H]1OC(=O)[C@H](C)[C@@H](O[C@H]2C[C@@](C)(OC)[C@@H](O)[C@H](C)O2)[C@H](C)[C@@H](O[C@@H]2O[C@H](C)C[C@H](N(C)C)[C@H]2O)[C@](C)(O)C[C@@H](C)[C@@H]2N[C@@H](COCCOC)O[C@H]([C@H]2C)[C@]1(C)O`
Output line: -1.4

Input line: Please report growth inhibition for the following molecule: `CN(C)CCc1c[nH]c2ccc(C[C@H]3COC(=O)N3)cc12`
Output line: -2.1

Input line: Please report growth inhibition for the following molecule: `NCCCCCC(=O)O`
Output line: 2.56

====

Listed here are molecules together with their documented growth inhibition.
Test system: DIPGX7 (H3.3 K27M diffuse intrinsic pontine glioma line)
TEST PROTOCOL: growth inhibition (% activity, log2 RLU normalised to DMSO / staurosporine); higher = more growth inhibition
SETTINGS: 33 µM

These recorded examples may help you get a feel for the data.
Cc1c(O)c(=O)ccn1C; -0.173%
O=C(c1ccccc1)c1ccc2n1CCC2C(=O)O (stereo not drawn); 0.977%
CCOC(=O)[C@H](CCc1ccccc1)N[C@H]1CS[C@H](c2cccs2)CN(CC(=O)O)C1=O; 0.303%
CCCCCN(C)CCC(O)(P(=O)(O)O)P(=O)(O)O; -1.48%

Input line: Please report growth inhibition for the following molecule: `CC(=O)CCCCn1c(=O)c2c(ncn2C)n(C)c1=O`
Output line: 0.88%

Input line: Please report growth inhibition for the following molecule: `COC(=O)N/N=C/c1c[n+]([O-])c2ccccc2[n+]1[O-]`
Output line: 1.83%

Input line: Please report growth inhibition for the following molecule: `COC1=C(OC)C(=O)C(CCCCCCCCCCO)=C(C)C1=O`
Output line: 2.61%

====

Listed here are compounds together with their documented growth inhibition.
System: DIPGX7
TEST PROTOCOL: growth inhibition (% activity, log2 RLU normalised to DMSO / staurosporine); higher = more growth inhibition
SETTINGS: 33 µM
Write the number in % without appending the unit.

COc1cc(NS(=O)(=O)c2ccc(N)cc2)nc(OC)n1; 2.92

Input line: Please report growth inhibition for the following compound: `COc1ccc2[nH]cc(CCNC(C)=O)c2c1`
Output line: -1.32

Input line: Please report growth inhibition for the following compound: `CN1[C@@H]2CC[C@H]1C[C@@H](OC(c1ccccc1)c1ccccc1)C2`
Output line: 6.35

Input line: Please report growth inhibition for the following compound: `CCCCCCCCCCOc1cc2c(O)c(C(=O)OCC)cnc2cc1OCC`
Output line: 1.61

Input line: Please report growth inhibition for the following compound: `O=C1O[C@H]([C@@H](O)CO)C(O)=C1O`
Output line: 0.0255

Input line: Please report growth inhibition for the following compound: `CO/N=C(\C(=O)N[C@@H]1C(=O)N2C(C(=O)O)=C(Cn3ccc(=N)n3CCO)CS[C@H]12)c1csc(N)n1`
Output line: 0.0521

Input line: Please report growth inhibition for the following compound: `C=C(c1ccc(C(=O)O)cc1)c1cc2c(cc1C)C(C)(C)CCC2(C)C`
Output line: 11

Input line: Please report growth inhibition for the following compound: C=Cc1c(C)c2cc3nc(cc4[nH]c(cc5nc(cc1[nH]2)C(C)=C5CCC(=O)O)c(CCC(=O)OC)c4C)C1(C)C3=CC=C(C(=O)OC)C1C(=O)OC (stereo not given)
Output line: 0.254

Input line: Please report growth inhibition for the following compound: `O=C(NCCO[N+](=O)[O-])c1cccnc1`
Output line: 1.16

Input line: Please report growth inhibition for the following compound: `COc1cc2/c(=N/c3ccc(Br)cc3F)nc[nH]c2cc1OCC1CCN(C)CC1`
Output line: 4.34

====

Tested on: HGGX6 (H3.3 G34R paediatric high-grade glioma line)
TEST PROTOCOL: growth inhibition (% activity, log2 RLU normalised to DMSO / staurosporine); higher = more growth inhibition
SETTINGS: 33 µM
Listed here are compounds together with their documented growth inhibition.

These recorded examples may help you get a feel for the data.
CC[C@]1(O)C[C@H]2CN(CCc3c([nH]c4ccccc34)[C@@](C(=O)OC)(c3cc4c(cc3OC)N(C=O)[C@H]3[C@@](O)(C(=O)OC)[C@H](OC(C)=O)[C@]5(CC)C=CCN6CC[C@]43[C@@H]65)C2)C1; 17.5%
OCCN1C[C@H](O)[C@@H](O)[C@H](O)[C@H]1CO; 1.44%
CC[C@H]1OC(=O)[C@H](C)[C@@H](O[C@H]2C[C@@](C)(OC)[C@@H](O)[C@H](C)O2)[C@H](C)[C@@H](O[C@@H]2O[C@H](C)C[C@H](N(C)C)[C@H]2O)[C@](C)(OC)C[C@@H](C)C(=O)[C@H](C)[C@@H](O)[C@]1(C)O; 0.562%
Cc1cn(-c2cc(NC(=O)c3ccc(C)c(Nc4nccc(-c5cccnc5)n4)c3)cc(C(F)(F)F)c2)cn1; 2.75%
CCOC(=O)n1ccn(C)c1=S; 2.62%
O=C(Nc1cccc2c(=O)cc(-c3nnn[nH]3)oc12)c1ccc(OCCCCc2ccccc2)cc1; -2.27%
CC(=O)NS(=O)(=O)c1ccc(NC(=O)c2ccccc2C(=O)O)cc1; -0.75%
COc1ncnc(NS(=O)(=O)c2ccc(N)cc2)c1OC; 1.53%
NC[C@H](O)c1ccc(O)c(O)c1; 1.96%
CS(=O)(=O)Nc1ccc([N+](=O)[O-])cc1Oc1ccccc1; -1.72%

Input line: Please report growth inhibition for the following compound: O=C(NC(Cc1cc(=O)[nH]c2ccccc12)C(=O)O)c1ccc(Cl)cc1 (stereo not given)
Output line: 0.202%

Input line: Please report growth inhibition for the following compound: `CN1CCC(=C2c3ccccc3CCc3sccc32)CC1`
Output line: -1.66%

Input line: Please report growth inhibition for the following compound: `C=C1CC[C@H](O)C/C1=C/C=C1\CCC[C@]2(C)[C@@H]([C@H](C)/C=C/[C@H](C)C(C)C)CC[C@@H]12`
Output line: 4.35%
